System: ATS189
Test: qHTS profiling for inhibitors of Plasmodium falciparum proliferation (AID 504749); also: nearly all actives have a fitted effect of over 60% in size; also: potency is read from the fitted curve at half-maximal effect
Conditions: P. falciparum in erythrocytes, SYBR Green DNA, 72 h; series mostly up to 28.7 µM
Results filed as inconclusive are left out. The source made the active and inactive calls. Calls follow the shape of the dose curve; as a rule, active = well fitted inhibition curve with a large enough effect; inconclusive = small, poorly fitted or top-dose-only effect; inactive = flat fitted curve, though single readings scatter.
QUANTITY_NAME: Potency

[[record]]
molecule = "COc1cc(NS(=O)(=O)c2ccc(N)cc2)nc(OC)n1"
target = "ATS189"
measured_result = "inactive"

[[record]]
molecule = "Nc1ccc(S(=O)(=O)Nc2ccccn2)cc1"
target = "ATS189"
measured_result = "inactive"

[[record]]
molecule = "CCn1cc(C(=O)O)c(=O)c2cc(F)c(N3CCNCC3)cc21"
target = "ATS189"
measured_result = "inactive"

[[record]]
molecule = "NC(=O)c1cccnc1"
target = "ATS189"
measured_result = "inactive"

[[record]]
molecule = "CC[C@H](NC(C)C)[C@H](O)c1ccc(O)c2[nH]c(=O)ccc12"
target = "ATS189"
measured_result = "inactive"

[[record]]
molecule = "CN(CCOc1ccc(CC2SC(=O)NC2=O)cc1)c1ccccn1 (stereo not given)"
target = "ATS189"
measured_result = "inactive"

[[record]]
molecule = "NC(=O)N1c2ccccc2CC(=O)c2ccccc21"
target = "ATS189"
measured_result = "inactive"

[[record]]
molecule = "Cc1ncc([N+](=O)[O-])n1CCO"
target = "ATS189"
measured_result = "inactive"

[[record]]
molecule = "CN1CCN(c2c(F)cc3c(=O)c(C(=O)O)cn4c3c2OCN4C)CC1"
target = "ATS189"
measured_result = "inactive"

[[record]]
molecule = "COC(=O)Nc1nc2ccc(C(=O)c3ccccc3)cc2[nH]1"
target = "ATS189"
measured_result = "inactive"

[[record]]
molecule = "Cc1oc(=O)oc1CN1CCN(c2cc3c(cc2F)c(=O)c(C(=O)O)c2n3C(C)S2)CC1 (stereo not given)"
target = "ATS189"
measured_result = "8.91 µM (active)"

[[record]]
molecule = "CCCc1cc(C(N)=S)ccn1"
target = "ATS189"
measured_result = "inactive"

[[record]]
molecule = "N[C@@H](C(=O)N[C@@H]1C(=O)N2C(C(=O)O)=C(Cl)CS[C@H]12)c1ccccc1"
target = "ATS189"
measured_result = "inactive"

[[record]]
molecule = "Cc1nnc(NS(=O)(=O)c2ccc(N)cc2)s1"
target = "ATS189"
measured_result = "inactive"

[[record]]
molecule = "S=P(N1CC1)(N1CC1)N1CC1"
target = "ATS189"
measured_result = "inactive"

[[record]]
molecule = "Nc1nc(N)c2nc(CNc3ccc(C(=O)NC(CCC(=O)O)C(=O)O)cc3)cnc2n1 (stereo not given)"
target = "ATS189"
measured_result = "inactive"

[[record]]
molecule = "C[C@@H](NCCCc1cccc(C(F)(F)F)c1)c1cccc2ccccc12"
target = "ATS189"
measured_result = "7.08 µM (active)"

[[record]]
molecule = "NCCCC(O)(P(=O)(O)O)P(=O)(O)O"
target = "ATS189"
measured_result = "inactive"

[[record]]
molecule = "CNNCc1ccc(C(=O)NC(C)C)cc1"
target = "ATS189"
measured_result = "inactive"

[[record]]
molecule = "CC(C)(Sc1cc(C(C)(C)C)c(O)c(C(C)(C)C)c1)Sc1cc(C(C)(C)C)c(O)c(C(C)(C)C)c1"
target = "ATS189"
measured_result = "inactive"

[[record]]
molecule = "COc1cc([C@@H]2c3cc4c(cc3[C@H](O)[C@H]3COC(=O)[C@H]23)OCO4)cc(OC)c1OC"
target = "ATS189"
measured_result = "3.55 µM (active)"

[[record]]
molecule = "Cc1noc(NS(=O)(=O)c2ccc(N)cc2)c1C"
target = "ATS189"
measured_result = "inactive"

[[record]]
molecule = "CC(=O)Oc1ccccc1C(=O)Nc1ncc([N+](=O)[O-])s1"
target = "ATS189"
measured_result = "inactive"

[[record]]
molecule = "CNC1CCCN(c2c(F)cc3c(=O)c(C(=O)O)cn(C4CC4)c3c2OC)C1 (stereo not given)"
target = "ATS189"
measured_result = "inactive"

[[record]]
molecule = "NC(N)=NC(N)=NCCc1ccccc1"
target = "ATS189"
measured_result = "inactive"

[[record]]
molecule = "CCOC(=O)[C@H](CCc1ccccc1)N[C@H]1CS[C@H](c2cccs2)CN(CC(=O)O)C1=O"
target = "ATS189"
measured_result = "inactive"

[[record]]
molecule = "CN(C)c1ccc(C(=C2C=CC(=[N+](C)C)C=C2)c2ccc(N(C)C)cc2)cc1"
target = "ATS189"
measured_result = "0.282 µM (active)"

[[record]]
molecule = "CCc1cc(C(N)=S)ccn1"
target = "ATS189"
measured_result = "inactive"

[[record]]
molecule = "CCOc1cc(N)c(Cl)cc1C(=O)NCC1CN(Cc2ccc(F)cc2)CCO1 (stereo not given)"
target = "ATS189"
measured_result = "5.01 µM (active)"

[[record]]
molecule = "COc1cc(NCc2ccc3nc(N)nc(N)c3c2C)cc(OC)c1OC"
target = "ATS189"
measured_result = "0.282 µM (active)"

[[record]]
molecule = "Nc1[nH]c(=O)ncc1F"
target = "ATS189"
measured_result = "inactive"

[[record]]
molecule = "CC(C)OC(=O)C(C(=O)OC(C)C)=C1SC=CS1"
target = "ATS189"
measured_result = "inactive"

[[record]]
molecule = "O=C(O)c1cc(=O)[nH]c(=O)[nH]1"
target = "ATS189"
measured_result = "inactive"

[[record]]
molecule = "Nc1nc(N)nc(-c2cc(Cl)ccc2Cl)n1"
target = "ATS189"
measured_result = "inactive"

[[record]]
molecule = "COc1ccc(C(=O)CC(=O)c2ccc(C(C)(C)C)cc2)cc1"
target = "ATS189"
measured_result = "inactive"

[[record]]
molecule = "COc1ncnc(NS(=O)(=O)c2ccc(N)cc2)c1OC"
target = "ATS189"
measured_result = "inactive"

[[record]]
molecule = "COC(=O)Nc1nc2ccc(Sc3ccccc3)cc2[nH]1"
target = "ATS189"
measured_result = "inactive"

[[record]]
molecule = "Oc1c(Cl)cc(Cl)c2cccnc12"
target = "ATS189"
measured_result = "8.91 µM (active)"

[[record]]
molecule = "CC(C)NCC(O)c1ccc(NS(C)(=O)=O)cc1 (stereo not given)"
target = "ATS189"
measured_result = "inactive"

[[record]]
molecule = "CC[C@H](C)C(=O)O[C@H]1C[C@@H](C)C=C2C=C[C@H](C)[C@H](CC[C@@H]3C[C@@H](O)CC(=O)O3)[C@H]21"
target = "ATS189"
measured_result = "inactive"

[[record]]
molecule = "Cc1cccc(Nc2ccncc2S(=O)(=O)NC(=O)NC(C)C)c1"
target = "ATS189"
measured_result = "inactive"

[[record]]
molecule = "Cc1ccnc2c1NC(=O)c1cccnc1N2C1CC1"
target = "ATS189"
measured_result = "inactive"

[[record]]
molecule = "OC(Cn1cncn1)(Cn1cncn1)c1ccc(F)cc1F"
target = "ATS189"
measured_result = "inactive"

[[record]]
molecule = "CCc1c2c(nc3ccc(OC(=O)N4CCC(N5CCCCC5)CC4)cc13)-c1cc3c(c(=O)n1C2)COC(=O)[C@]3(O)CC"
target = "ATS189"
measured_result = "inactive"

[[record]]
molecule = "CN(C)CCc1c[nH]c2ccc(CS(=O)(=O)N3CCCC3)cc12"
target = "ATS189"
measured_result = "inactive"


###

Target: Luciferin 4-monooxygenase (Photinus pyralis)
Assay: Biochemical firefly luciferase enzyme assay for NPC (AID 624030); also: nearly all actives have a fitted effect of over 70% in size
Settings: purified P. pyralis luciferase, luminescence, 5 min; series mostly up to 58.6 µM
Results filed as inconclusive are left out. The source made the active and inactive calls. Calls follow the shape of the dose curve; as a rule, active = well fitted inhibition curve with a large enough effect; inconclusive = small, poorly fitted or top-dose-only effect; inactive = flat fitted curve, though single readings scatter.
Labels: active, inactive

[[record]]
compound = "Cc1cccc(N(C)C(=S)Oc2ccc3ccccc3c2)c1"
target = "Luciferin 4-monooxygenase (Photinus pyralis)"
class = "inactive"

[[record]]
compound = "S=P(N1CC1)(N1CC1)N1CC1"
target = "Luciferin 4-monooxygenase (Photinus pyralis)"
class = "inactive"

[[record]]
compound = "NC(=O)N1c2ccccc2CC(=O)c2ccccc21"
target = "Luciferin 4-monooxygenase (Photinus pyralis)"
class = "inactive"

[[record]]
compound = "O=C(N[C@H](CO)[C@H](O)c1ccc([N+](=O)[O-])cc1)C(Cl)Cl"
target = "Luciferin 4-monooxygenase (Photinus pyralis)"
class = "inactive"

[[record]]
compound = "O=c1oc2c(O)c(O)cc3c(=O)oc4c(O)c(O)cc1c4c23"
target = "Luciferin 4-monooxygenase (Photinus pyralis)"
class = "active"

[[record]]
compound = "CC(=O)CC(c1ccccc1)c1c(O)c2ccccc2oc1=O (centres undefined)"
target = "Luciferin 4-monooxygenase (Photinus pyralis)"
class = "inactive"

[[record]]
compound = "CCCc1cc(C(N)=S)ccn1"
target = "Luciferin 4-monooxygenase (Photinus pyralis)"
class = "inactive"

[[record]]
compound = "OC(Cn1cncn1)(Cn1cncn1)c1ccc(F)cc1F"
target = "Luciferin 4-monooxygenase (Photinus pyralis)"
class = "inactive"

[[record]]
compound = "CN1CCN(c2c(F)cc3c(=O)c(C(=O)O)cn(CCF)c3c2F)CC1"
target = "Luciferin 4-monooxygenase (Photinus pyralis)"
class = "inactive"

[[record]]
compound = "COc1ccc(C(=O)CC(=O)c2ccc(C(C)(C)C)cc2)cc1"
target = "Luciferin 4-monooxygenase (Photinus pyralis)"
class = "inactive"

[[record]]
compound = "CNC1CCCN(c2c(F)cc3c(=O)c(C(=O)O)cn(C4CC4)c3c2OC)C1 (centres undefined)"
target = "Luciferin 4-monooxygenase (Photinus pyralis)"
class = "inactive"

[[record]]
compound = "CN(C)CCc1c[nH]c2ccc(CS(=O)(=O)N3CCCC3)cc12"
target = "Luciferin 4-monooxygenase (Photinus pyralis)"
class = "inactive"

[[record]]
compound = "CN(C)c1ccc(C(=C2C=CC(=[N+](C)C)C=C2)c2ccc(N(C)C)cc2)cc1"
target = "Luciferin 4-monooxygenase (Photinus pyralis)"
class = "active"

[[record]]
compound = "C1CCC(C(CC2CCCCN2)C2CCCCC2)CC1 (centres undefined)"
target = "Luciferin 4-monooxygenase (Photinus pyralis)"
class = "inactive"

[[record]]
compound = "CNNCc1ccc(C(=O)NC(C)C)cc1"
target = "Luciferin 4-monooxygenase (Photinus pyralis)"
class = "inactive"

[[record]]
compound = "COc1cccc(N(C)C(=S)Oc2ccc3c(c2)CCCC3)n1"
target = "Luciferin 4-monooxygenase (Photinus pyralis)"
class = "inactive"

[[record]]
compound = "CNS(=O)(=O)CCc1ccc2[nH]cc(C3CCN(C)CC3)c2c1"
target = "Luciferin 4-monooxygenase (Photinus pyralis)"
class = "inactive"

[[record]]
compound = "NC1(c2ccc(-c3nc4ccn5c(=O)[nH]nc5c4cc3-c3ccccc3)cc2)CCC1"
target = "Luciferin 4-monooxygenase (Photinus pyralis)"
class = "inactive"

[[record]]
compound = "Oc1c(Cl)cc(Cl)c2cccnc12"
target = "Luciferin 4-monooxygenase (Photinus pyralis)"
class = "inactive"

[[record]]
compound = "CCOCC(O)COc1ccc(NC(=O)CC[S+](C)C)cc1 (centres undefined)"
target = "Luciferin 4-monooxygenase (Photinus pyralis)"
class = "inactive"

[[record]]
compound = "COC(=O)Nc1nc2ccc(Sc3ccccc3)cc2[nH]1"
target = "Luciferin 4-monooxygenase (Photinus pyralis)"
class = "inactive"

[[record]]
compound = "Cc1c(-c2ccc(O)cc2)n(Cc2ccc(OCCN3CCCCCC3)cc2)c2ccc(O)cc12"
target = "Luciferin 4-monooxygenase (Photinus pyralis)"
class = "inactive"

[[record]]
compound = "CNCC[C@H](Oc1cccc2ccccc12)c1cccs1"
target = "Luciferin 4-monooxygenase (Photinus pyralis)"
class = "inactive"

[[record]]
compound = "O=P(O)(O)C(O)(Cc1cccnc1)P(=O)(O)O"
target = "Luciferin 4-monooxygenase (Photinus pyralis)"
class = "inactive"


// data source = PubChem BioAssay (NCATS)
